System: Zymoseptoria tritici (SEPTTR-184)
Test: Cyp51 dsRNA tile (fragment) foliar application bioassay (Example 6)
Format: in vivo
Conditions: 3 days curative; calculated from disease control
Protocol: The 200 ppm concentration for each treatment was prepared by adding the calculated volume of the corresponding dsRNA solution in TE buffer. […] A non-target dsRNA control (YFP), a TE/phosphate buffer control, disease pressure control, and clean plant control were included. These plants were inoculated with an aqueous spore suspension of Zymoseptoria tritici either prior to or after fungicidal treatments. […]
Test Readout: ED50 (ppm) SEPTTR-184 3DC
Numeric only. Scale: ppm

Record MgCyp51-T13: dsRNA tile of Zymoseptoria tritici Cyp51, 119 bp, location 1517-1635 (nucleic acid, listed as Zymoseptoria tritici, long dsRNA tile, purified, chemistry not given here) ACAATGTGGATGGCAGCGACAACGTGGTGGGTACGGATTACAGCAGTTTGTTCAGCCGGCCGCTGTCGCCGGCAGTAGTAAAGTGGGAGAGGAGGGAGGAGAAGGAGGAGAAGAACTGA , field ED50 (ppm) SEPTTR-184 3DC: 4.167

Next molecule, ED50 (ppm) SEPTTR-184 3DC to be filled in.
molecule MgCyp51-T11: dsRNA tile of Zymoseptoria tritici Cyp51, 172 bp, location 775-946 (nucleic acid, listed as Zymoseptoria tritici) TCCGAGACATACATGTCGATCATTCAGAAGAGACGAGAGTCCAAAACGGGCGAACATGAGGAAGACATGATCCACAACTTGATGCAGTGCAAATACAAGGACGGCAATGCCATTCCCGACAAGGAGATTGCTCATATGATGATTGCGCTGCTCATGGCCGGCCAGCACTCTT , ED50 (ppm) SEPTTR-184 3DC observed: 12.500
